# protocol_summary: Plasma pharmacokinetics over 2 h after oral ibogaine in wild-type, Abcg2-/- and Abcb1a/1b;Abcg2-/- mice
# Type: in vivo
# assay_conditions: female, Abcg2-/-, mouse, plasma, po, 10 mg/kg

compound	Cmax
CCC1CC2CC3c4[nH]c5ccc(O)cc5c4CCN(C2)C13 (centres unmarked) [Noribogaine, 12-hydroxyibogamine]	233 ng/mL
CCC1CC2CC3c4[nH]c5ccc(OC6OC(C(=O)O)C(O)C(O)C6O)cc5c4CCN(C2)C13 (centres unmarked) [Noribogaine glucuronide, noribogaine glucuronide]	122 ng/mL

###

# protocol_summary: Plasma pharmacokinetics over 8 h after oral ibogaine in wild-type, Cyp3a-/- and Cyp3aXAV mice
# Assay type: in vivo
# assay_conditions: female, Cyp3a-/-, mouse, 10 mg/kg, read-out: AUC0-8h

molecule	unit_info	AUC(0-t)
CCC1CC2CC3c4[nH]c5ccc(OC6OC(C(=O)O)C(O)C(O)C6O)cc5c4CCN(C2)C13 (centres unmarked) [Noribogaine glucuronide, noribogaine glucuronide]	ng·h/mL	422
CCC1CC2CC3c4[nH]c5ccc(O)cc5c4CCN(C2)C13 (centres unmarked) [Noribogaine, 12-hydroxyibogamine]	ng·h/mL	1070

###

# protocol_summary: Tissue distribution 2 h after oral ibogaine in wild-type, Abcg2-/- and Abcb1a/1b;Abcg2-/- mice
# Format: in vivo
# assay_conditions: wild-type, mouse, inguinal white adipose tissue, po, 10 mg/kg; read-out: adipose tissue-to-plasma distribution ratio
The compounds listed here are annotated with their Kp at 2 h.

compound	Kp at 2 h
CCC1CC2CC3c4[nH]c5ccc(OC6OC(C(=O)O)C(O)C(O)C6O)cc5c4CCN(C2)C13 (centres unmarked) [Noribogaine glucuronide, noribogaine glucuronide]	0.058
CCC1CC2CC3c4[nH]c5ccc(O)cc5c4CCN(C2)C13 (centres unmarked) [Noribogaine, 12-hydroxyibogamine]	2.8

###

The compounds listed here are annotated with their Tmax.
# protocol_summary: Plasma pharmacokinetics over 2 h after oral ibogaine in wild-type, Oatp1a/1b-/-, Oatp1a/1b-/-;1B1tg and Oatp1a/1b-/-;1B3tg mice
# Type: in vivo
# assay_conditions: female, wild-type, mouse, plasma, po, 10 mg/kg
assay_readout: Tmax (h)

compound	assay_readout	reported_value
CCC1CC2CC3c4[nH]c5ccc(OC6OC(C(=O)O)C(O)C(O)C6O)cc5c4CCN(C2)C13 (centres unmarked) [Noribogaine glucuronide, noribogaine glucuronide]	Tmax	2
CCC1CC2CC3c4[nH]c5ccc(O)cc5c4CCN(C2)C13 (centres unmarked) [Noribogaine, 12-hydroxyibogamine]	Tmax	0.5

###

# protocol_summary: Plasma pharmacokinetics over 8 h after oral ibogaine in wild-type, Cyp3a-/- and Cyp3aXAV mice
# Assay type: in vivo
# assay_conditions: female, wild-type, mouse, 10 mg/kg

molecule	unit_info	Cmax
CCC1CC2CC3c4[nH]c5ccc(O)cc5c4CCN(C2)C13 (centres unmarked) [Noribogaine, 12-hydroxyibogamine]	ng/mL	217
CCC1CC2CC3c4[nH]c5ccc(OC6OC(C(=O)O)C(O)C(O)C6O)cc5c4CCN(C2)C13 (centres unmarked) [Noribogaine glucuronide, noribogaine glucuronide]	ng/mL	70

###

Catalogue of Tmax readings, one per entry.
# protocol_summary: Plasma pharmacokinetics over 2 h after oral ibogaine in wild-type, Oatp1a/1b-/-, Oatp1a/1b-/-;1B1tg and Oatp1a/1b-/-;1B3tg mice
# Type: in vivo
# assay_conditions: female, Oatp1a/1b-/-;1B3tg, mouse, plasma, po, 10 mg/kg

compound	Tmax [min]
CCC1CC2CC3c4[nH]c5ccc(OC6OC(C(=O)O)C(O)C(O)C6O)cc5c4CCN(C2)C13 (centres unmarked) [Noribogaine glucuronide, noribogaine glucuronide]	60
CCC1CC2CC3c4[nH]c5ccc(O)cc5c4CCN(C2)C13 (centres unmarked) [Noribogaine, 12-hydroxyibogamine]	15
